experiment: in vivo; conditions: male, C57BL/6J, mouse, po, 25 mg/kg, Plasma concentration, male C57BL/6J mice, single oral dose 25 mg/kg, 2 h, G2
quantity_kind: concentration at 2 h (ng/mL)
Only the number, expressed in ng/mL, is required.

Look at this compound and give its reported concentration at 2 h. CN1CCc2cccc3c2[C@@H]1Cc1ccc(O)c(O)c1-3 138

----------
assay: in vivo; conditions: male, C57BL/6J, mouse, 0.0367 mg/kg, plasma concentration
quantity_kind: concentration at […]
Param answer (str): number followed by unit.

Look at this compound and give its reported concentration at […]. CN1CCc2cccc3c2[C@H]1Cc1ccc(O)c(O)c1-3 10.1 ng/mL

----------
assay: in vivo; details: male, SD, rat, iv, 0.88 mg/kg, mean plasma concentration
quantity_kind: concentration at 2 min

Look at this compound and give its reported concentration at 2 min. CN1CCc2cccc3c2[C@H]1Cc1ccc(O)c(O)c1-3 3.75 ng/mL

----------
assay: Plasma and CSF pharmacokinetic study, single sublingual, oral or subcutaneous dose, male Beagle dogs; assay type: in vivo; settings: male, beagle, dog, in vivo, po, 10 mg/kg, plasma concentration
quantity_kind: concentration at 1 h (ng/mL)
Only the number, expressed in ng/mL, is required.

Look at this compound and give its reported concentration at 1 h. CN1CCc2cccc3c2[C@@H]1Cc1ccc(O)c(O)c1-3 42.2

----------
assay: in vivo; conditions: male, C57BL/6J, mouse, plasma concentration
quantity_kind: concentration at 2 h (ng/mL)
Only the number, expressed in ng/mL, is required.

Look at this compound and give its reported concentration at 2 h. CN1CCc2cccc3c2[C@@H]1Cc1ccc(O)c(O)c1-3 14.9

----------
assay: Plasma and CSF pharmacokinetic study, single sublingual, oral or subcutaneous dose, male Beagle dogs; assay type: in vivo; settings: male, beagle, dog, in vivo, 5 mg/kg, plasma concentration
quantity_kind: concentration at 1 h (ng/mL)
Only the number, expressed in ng/mL, is required.

Look at this molecule and give its reported concentration at 1 h. CN1CCc2cccc3c2[C@@H]1Cc1ccc(O)c(O)c1-3 116

----------
assay: Plasma and CSF pharmacokinetic study, single sublingual, oral or subcutaneous dose, male Beagle dogs; type: in vivo; conditions: male, beagle, dog, in vivo, 5 mg/kg, AUClast ratio of CSF to total plasma
quantity_kind: Kp

Look at this molecule and give its reported Kp. CN1CCc2cccc3c2[C@@H]1Cc1ccc(O)c(O)c1-3 1.08

----------
experiment: in vivo; settings: male, C57BL/6J, mouse, sc, 0.0367 mg/kg, MRTInf
quantity_kind: MRT inf (min)
Only the number, expressed in min, is required.

Look at this compound and give its reported MRT inf. CN1CCc2cccc3c2[C@H]1Cc1ccc(O)c(O)c1-3 32.5

----------
experiment: in vivo; conditions: male, C57BL/6J, mouse, po, 25 mg/kg, AUClast, plasma, Mean, male C57BL/6J mice, single oral dose 25 mg/kg
quantity_kind: AUC(0-t) (ng·h/mL)
Only the number, expressed in ng·h/mL, is required.

Look at this compound and give its reported AUC(0-t). CN1CCc2cccc3c2[C@@H]1Cc1ccc(O)c(O)c1-3 857

----------
assay: Plasma and CSF pharmacokinetic study, single sublingual, oral or subcutaneous dose, male Beagle dogs; type: in vivo; settings: male, beagle, dog, in vivo, po, 10 mg/kg, plasma concentration
quantity_kind: concentration at 2 h (ng/mL)
Only the number, expressed in ng/mL, is required.

Look at this compound and give its reported concentration at 2 h. CN1CCc2cccc3c2[C@@H]1Cc1ccc(O)c(O)c1-3 22.9

----------
experiment: Plasma and CSF pharmacokinetic study, single sublingual, oral or subcutaneous dose, male Beagle dogs; format: in vivo; conditions: male, beagle, dog, in vivo, po, 10 mg/kg, male Beagle dogs (fasted), single PO 10 mg/kg, plasma, individual dogs; read-out: Cmax
quantity_kind: Cmax (ng/mL)
Only the number, expressed in ng/mL, is required.

Look at this compound and give its reported Cmax. CN1CCc2cccc3c2[C@@H]1Cc1ccc(O)c(O)c1-3 84.8

----------
assay: in vivo; settings: male, C57BL/6J, mouse, brain concentration, Mean
quantity_kind: concentration at 0.5 h (ng/g)
Only the number, expressed in ng/g, is required.

Look at this molecule and give its reported concentration at 0.5 h. CN1CCc2cccc3c2[C@H]1Cc1ccc(O)c(O)c1-3 39.6

----------
test: Plasma and CSF pharmacokinetic study, single sublingual, oral or subcutaneous dose, male Beagle dogs; format: in vivo; conditions: male, beagle, dog, in vivo, sc, 1 mg/kg, plasma concentration
quantity_kind: concentration at […] (ng/mL)
Only the number, expressed in ng/mL, is required.

Look at this molecule and give its reported concentration at […]. CN1CCc2cccc3c2[C@@H]1Cc1ccc(O)c(O)c1-3 89.2

----------
experiment: Plasma and CSF pharmacokinetic study, single sublingual, oral or subcutaneous dose, male Beagle dogs; type: in vivo; details: male, beagle, dog, in vivo, sc, 1 mg/kg, CSF; single SC 1 mg/kg; individual animal
quantity_kind: AUC(0-t) (ng·h/mL)
Only the number, expressed in ng·h/mL, is required.

Look at this compound and give its reported AUC(0-t). CN1CCc2cccc3c2[C@@H]1Cc1ccc(O)c(O)c1-3 119

----------
test: in vivo; conditions: male, C57BL/6J, mouse, po, 25 mg/kg, Plasma concentration, male C57BL/6J mice, repeated oral dose 25 mg/kg, […] post last day (Day 4) dose, G3
quantity_kind: concentration at […] (ng/mL)
Only the number, expressed in ng/mL, is required.

Look at this compound and give its reported concentration at […]. CN1CCc2cccc3c2[C@@H]1Cc1ccc(O)c(O)c1-3 1110

----------
Test: Plasma and CSF pharmacokinetic study, single sublingual, oral or subcutaneous dose, male Beagle dogs
Format: in vivo
Conditions: male, beagle, dog, in vivo, sc, 1 mg/kg, CSF concentration
Description: Animals were fed twice daily. […] Food was withheld until 4-hour post-dose. All blood samples were collected from a peripheral vessel. For CSF collection, a polypropylene tube was first weighted to accuracy of 0.1 mg (weight #1). CSF was collected in the tube and weighted again (weight #2). Total CSF weight was calculated by subtracting weight #1 from weight #2. Samples were kept on ice and protected from sunlight. […]
quantity_kind: concentration at 0.033 h (ng/mL)
Only the number, expressed in ng/mL, is required.

Look at this compound and give its reported concentration at 0.033 h. CN1CCc2cccc3c2[C@@H]1Cc1ccc(O)c(O)c1-3 1.73

----------
test: Plasma and CSF pharmacokinetic study, single sublingual, oral or subcutaneous dose, male Beagle dogs; type: in vivo; settings: male, beagle, dog, in vivo, 5 mg/kg, male Beagle dogs (fasted), single SL 5 mg/kg, plasma, individual dogs; read-out: Cmax
quantity_kind: Cmax (ng/mL)
Only the number, expressed in ng/mL, is required.

Look at this compound and give its reported Cmax. CN1CCc2cccc3c2[C@@H]1Cc1ccc(O)c(O)c1-3 162

----------
Test: Plasma and CSF pharmacokinetic study, single sublingual, oral or subcutaneous dose, male Beagle dogs
Assay type: in vivo
Details: male, beagle, dog, in vivo, sc, 1 mg/kg, plasma; single SC 1 mg/kg; individual animal; read-out: Cmax
Experimental: Animals were fed twice daily. […] Food was withheld until 4-hour post-dose. All blood samples were collected from a peripheral vessel. For CSF collection, a polypropylene tube was first weighted to accuracy of 0.1 mg (weight #1). CSF was collected in the tube and weighted again (weight #2). Total CSF weight was calculated by subtracting weight #1 from weight #2. Samples were kept on ice and protected from sunlight. […]
quantity_kind: Cmax (ng/mL)
Only the number, expressed in ng/mL, is required.

Look at this compound and give its reported Cmax. CN1CCc2cccc3c2[C@@H]1Cc1ccc(O)c(O)c1-3 113

----------
experiment: in vivo; settings: male, SD, rat, iv, 0.88 mg/kg, MRTInf
quantity_kind: MRT inf

Look at this molecule and give its reported MRT inf. CN1CCc2cccc3c2[C@@H]1Cc1ccc(O)c(O)c1-3 1.26 h

----------
assay: in vivo; conditions: male, C57BL/6J, mouse, CSF concentration
quantity_kind: concentration at […]
Param answer (str): number followed by unit.

Look at this compound and give its reported concentration at […]. CN1CCc2cccc3c2[C@@H]1Cc1ccc(O)c(O)c1-3 20.5 ng/mL

----------
assay: in vivo; conditions: male, SD, rat, iv, 0.88 mg/kg, plasma concentration
quantity_kind: concentration at 8 h (ng/mL)
Only the number, expressed in ng/mL, is required.

Look at this compound and give its reported concentration at 8 h. CN1CCc2cccc3c2[C@@H]1Cc1ccc(O)c(O)c1-3 0.88

----------
test: in vivo; conditions: male, C57BL/6J, mouse, po, 25 mg/kg, Brain concentration, Mean
quantity_kind: concentration at 0.5 h (ng/g)
Only the number, expressed in ng/g, is required.

Look at this compound and give its reported concentration at 0.5 h. CN1CCc2cccc3c2[C@@H]1Cc1ccc(O)c(O)c1-3 65.7
